Test system: Calu-3
assay explanation: cell viability relative to DMSO; higher = less toxic
setup conditions: 72 h; 1000 nM
Decide using cell viability alone. Strictly below 90%: TRUE. Equal to or above 90%: FALSE.

compound	experimental system	class label
CO[C@H]1CC[C@H](N2C(=O)CNc3ncc(-c4ccc(C(C)(C)O)nc4)nc32)CC1	Calu-3	TRUE
C=CC(=O)Nc1cccc(Oc2nc(Nc3ccc(N4CCN(C)CC4)cc3)ncc2Cl)c1	Calu-3	TRUE
CCCCCCCCCCCCCCC[C@@H](O)[C@@H](N)CO	Calu-3	FALSE
NCCCS(=O)(=O)O [tramiprosate]	Calu-3	FALSE
CCCN(CCC)[C@H]1CCc2cccc(O)c2C1 [8-hydroxy-DPAT]	Calu-3	FALSE
Cc1n[nH]c(C)c1Cc1sc2c(c1C(=O)N1C[C@H](O)CO1)c(=O)n(C)c(=O)n2CC(C)C	Calu-3	FALSE
Nc1ncnc2c1ncn2[C@@H]1O[C@H](CO)[C@@H](O)[C@H]1O	Calu-3	FALSE
COc1ccc([C@@H]2CC(=O)c3c(O)cc(O[C@@H]4O[C@H](CO[C@@H]5O[C@@H](C)[C@H](O)[C@@H](O)[C@H]5O)[C@@H](O)[C@H](O)[C@H]4O)cc3O2)cc1O	Calu-3	FALSE
CC(C)C[C@@H](C(=O)N[C@H](C(=O)OC1CCCC1)c1ccccc1)[C@H](O)C(=O)NO	Calu-3	TRUE
Cc1cc(C)c2c(c1)[C@@H](N(Cc1cc(C(F)(F)F)cc(C(F)(F)F)c1)c1nnn(C)n1)CCCN2C[C@H]1CC[C@H](C(=O)O)CC1	Calu-3	FALSE
CCCN1CCN(c2ccc(C(=O)NC3(C(=O)NCC#N)CCCCC3)cc2)CC1	Calu-3	FALSE
CC[C@@H]1C(=O)N(C)c2cnc(Nc3ccc(C(=O)N[C@H]4CC[C@H](N5CCN(CC6CC6)CC5)CC4)cc3OC)nc2N1C(C)C	Calu-3	TRUE
C[C@H](NC(=O)Cc1cc(F)cc(F)c1)C(=O)N[C@@H]1C(=O)N(C)c2ccccc2-c2ccccc21	Calu-3	FALSE
